Organism: Rattus norvegicus
Assay Procedure: Open TG-GATES - Regimen: Daily Repeat
Assay type: toxicity, organism-based, Sprague-Dawley
Parameters: regimen Daily Repeat, gender Male, age 6 weeks
Test Parameters: in vivo, po, 0 mg/kg, […], tissue Plasma, route gavage, dose level Control, time 14 day
LDH for assorted compounds
Express it in IU/L; write the number only.

Suppose we examine the compound `CNC(=C[N+](=O)[O-])NCCSCc1ccc(CN(C)C)o1` ; what LDH value has been reported? 177

Return reported LDH; argument: `CC(C)NNC(=O)c1ccncc1` 176.8

Entry `Brc1ccccc1` : reported LDH = ? 64.2

Looking for the measured LDH of `Cc1nnc2n1-c1ccc(Cl)cc1C(c1ccccc1Cl)=NC2` , can you help? 90

// returns reported LDH for input `CCCc1cc(=O)[nH]c(=S)[nH]1` 87.4

For the compound shown here, `CN/C(=N/CCSCc1nc[nH]c1C)NC#N` , give the reported LDH. 169.6

Recorded LDH for `O=C(OC[C@H]1O[C@@H](OC(=O)c2cc(O)c(O)c(OC(=O)c3cc(O)c(O)c(O)c3)c2)[C@H](OC(=O)c2cc(O)c(O)c(OC(=O)c3cc(O)c(O)c(O)c3)c2)[C@@H](OC(=O)c2cc(O)c(O)c(OC(=O)c3cc(O)c(O)c(O)c3)c2)[C@@H]1OC(=O)c1cc(O)c(O)c(OC(=O)c2cc(O)c(O)c(O)c2)c1)c1cc(O)c(O)c(OC(=O)c2cc(O)c(O)c(O)c2)c1` , please? 81

Query: LDH; subject: CN1C(=O)CCS(=O)(=O)C1c1ccc(Cl)cc1 (stereo not drawn) 47

---

Organism: Rattus norvegicus
Assay Procedure: Open TG-GATES - Regimen: Daily Repeat
Assay type: toxicity, organism-based, Sprague-Dawley
Set-up: regimen Daily Repeat, gender Male, age 6 weeks
Test Parameters: in vivo, po, 1000 mg/kg, […], tissue Blood, route gavage, dose level High, time 14 day
Label label 1 when APTT is strictly below 20 s; otherwise label label 0.

Check out these entries, answers already filled in.
[
  {
    "Smiles Repr": "Cc1nnc2n1-c1ccc(Cl)cc1C(c1ccccc1Cl)=NC2",
    "Discrete Label": "label 1"
  },
  {
    "Smiles Repr": "CCOc1ccc(NC(C)=O)cc1",
    "Discrete Label": "label 1"
  },
  {
    "Smiles Repr": "COC(=O)C1=C(C)NC(C)=C(C(=O)OC)C1c1ccccc1[N+](=O)[O-]",
    "Discrete Label": "label 0"
  },
  {
    "Smiles Repr": "CNC(=C[N+](=O)[O-])NCCSCc1ccc(CN(C)C)o1",
    "Discrete Label": "label 1"
  }
]

Next up:
Lab note: confirm whether the reported APTT for this compound is below 20 s, equality not counting. compound: `O=C(OC[C@H]1O[C@@H](OC(=O)c2cc(O)c(O)c(OC(=O)c3cc(O)c(O)c(O)c3)c2)[C@H](OC(=O)c2cc(O)c(O)c(OC(=O)c3cc(O)c(O)c(O)c3)c2)[C@@H](OC(=O)c2cc(O)c(O)c(OC(=O)c3cc(O)c(O)c(O)c3)c2)[C@@H]1OC(=O)c1cc(O)c(O)c(OC(=O)c2cc(O)c(O)c(O)c2)c1)c1cc(O)c(O)c(OC(=O)c2cc(O)c(O)c(O)c2)c1` label 1

Entry source: ChEMBL document CHEMBL3885861
